Values were extracted from patent EP4772535A1.

binders and their reported Top (MFI)
experimental.system: T1, ROR1 naturally expressed on human tumor cell lines (A549, Jeko-1, SW620, PA-1) (human, UniProt Q01973 30-937)
T1 construct: whole, on cells; also called cells expressing ROR1
T1 sequence (Q01973 30-937): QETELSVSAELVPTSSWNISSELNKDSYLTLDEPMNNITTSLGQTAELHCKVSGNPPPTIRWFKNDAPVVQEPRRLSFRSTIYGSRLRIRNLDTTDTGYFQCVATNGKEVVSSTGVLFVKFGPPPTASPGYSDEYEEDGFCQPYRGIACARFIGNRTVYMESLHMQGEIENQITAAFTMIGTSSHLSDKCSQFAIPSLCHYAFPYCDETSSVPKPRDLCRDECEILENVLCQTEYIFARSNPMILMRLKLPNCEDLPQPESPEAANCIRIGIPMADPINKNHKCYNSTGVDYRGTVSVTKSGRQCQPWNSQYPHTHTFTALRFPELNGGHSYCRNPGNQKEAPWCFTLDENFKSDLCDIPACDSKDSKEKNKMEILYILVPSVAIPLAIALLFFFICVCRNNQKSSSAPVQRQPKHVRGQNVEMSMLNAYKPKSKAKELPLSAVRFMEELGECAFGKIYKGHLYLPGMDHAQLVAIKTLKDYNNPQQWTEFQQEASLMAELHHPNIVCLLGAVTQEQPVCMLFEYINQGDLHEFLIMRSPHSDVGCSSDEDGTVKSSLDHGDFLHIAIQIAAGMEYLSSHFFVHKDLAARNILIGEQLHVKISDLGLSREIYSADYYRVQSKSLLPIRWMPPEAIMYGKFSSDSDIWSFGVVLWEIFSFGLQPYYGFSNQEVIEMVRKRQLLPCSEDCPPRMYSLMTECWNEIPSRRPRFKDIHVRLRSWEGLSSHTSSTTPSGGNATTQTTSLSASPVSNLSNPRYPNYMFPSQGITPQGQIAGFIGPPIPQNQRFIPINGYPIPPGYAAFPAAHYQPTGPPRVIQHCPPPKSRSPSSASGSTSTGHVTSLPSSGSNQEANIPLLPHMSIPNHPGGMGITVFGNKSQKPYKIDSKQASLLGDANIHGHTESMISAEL
experiment.summary: FACS on A549 cells naturally expressing ROR1
Answer in MFI, number only, no unit symbol.

Worked examples follow.
{"binder": "ch137G11D10 (antibody, human IgG1, kappa, V domains shown, also called chimeric antibody of m137G11D10) VH: DVQLQESGPGLVKPSQSLSLTCTVTGYSITSDYAWNWIRQFPGNKLEWMGYITYSASTSYNPSLKSRISITRDTSKNQFFLQLNSVTTEDTATYYCARGAGTYYFDYWGQGSTLTVSS VL: DIVLTQSPASLSVATGEKVTIRCITSTDIDEDMNWYQQKPGEPPKLLISEDNSLRPGVPSRFSSSGYGTDFVLTIENTLSEDVADYYCLQTNNLPLTFGAGTKLEIKR", "Top (MFI)": 82800}
{"binder": "ch3G9B1 (antibody, human IgG1, kappa, V domains shown, also called chimeric antibody of m3G9B1) VH: QVQLQQSGTELARPGASVKLSCKASGYTFTSYGITWVKQRTGQGLEWIGEIYPRSGNTYFNEKFKGKATLTADKSSSTAYMELRSLTSEDSAVYFCARDRTGTGVDDYWGQGTTLTVSS VL: DIVLTQSPASLSMAIGEKVTIRCITNTDIDDDMSWYQQKPGEPPNLLISEGNTLRPGVPSRFSSSGYGRDFVFTIENMLSEDVADYYCLQSNNLPYTFGGGTKLEIKR", "Top (MFI)": 65200}
{"binder": "ch29H5D8 (antibody, human IgG1, kappa, V domains shown, also called chimeric antibody of m29H5D8) VH: EVQLQQSGAELARPGASVKLSCKASGYTFTNYGISWVKQRTGQGLEWIGEIYPRSVNTYYSAKFKGKATLTADKSSSTAYMELRSLTSEDSAVYFCARHYYGSSLDYWGQGTTLTVSS VL: DIVLTQSPASLSVATGEKVTIRCITSSDIEDDMNWYQQKPGEPPKLLISEGNSLRPGVPSRFSSSGYGTDFVFTIENTLSEDVADYYCLQSDNIFTFGSGTKLEIKR", "Top (MFI)": 78500}
{"binder": "UC-961 (antibody, V domains shown) VH: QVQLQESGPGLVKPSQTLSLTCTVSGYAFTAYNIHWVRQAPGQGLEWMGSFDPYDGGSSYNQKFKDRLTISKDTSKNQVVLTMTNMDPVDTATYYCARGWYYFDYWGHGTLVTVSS VL: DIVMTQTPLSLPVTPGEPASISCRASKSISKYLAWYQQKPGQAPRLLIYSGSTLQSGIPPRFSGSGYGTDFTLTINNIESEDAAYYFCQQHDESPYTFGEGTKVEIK", "Top (MFI)": 75700}

Now look at this one.
Quote Top (MFI) reported for ch135A2B10 (antibody, human IgG1, kappa, V domains shown, also called chimeric antibody of m135A2B10) VH: DVKLVESGGGLVTPEGSLKLSCAASGFAFSTYGMAWVRQTPEKRLEWVASIHKGGFSTYYPDNVKGRFTISRDNDKNTLYLQMSSLKSEDTAMYYCIRHDWDGAMDYWGQGTSVTVSS VL: DIVLTQSPSSMYASLGERVTITCKASQDINSYLNWFQQKPGKSPKTLIYRANRLVDGVPSRFSGSGSGQDYSLTISSLEYEDLGIYYCLQFDEFPYTFGGGTKLEIKR please.
87800
